Assay: NOD1 signaling inhibitors, primary screen, cell-based, luminescence, uHTS (AID 1578);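 note: HEK-293T reporter cells stimulated with the NOD1 agonist gamma-tri-DAP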
Conditions: NOD1-driven NF-kB luciferase reporter cells, at 4 µM, hits give high values
Screen size: about 290,000 compounds; about 3,000 (1%) were called active. The entries come from a sample that favours actives as a whole.
MEASUREMENT TYPE: inhibition

COMPOUND: CCCO/N=C1/C(=O)N(c2ccccc2)c2ccccc21
inhibition: 6.1% (inactive)
//
COMPOUND: Cc1ccc(C(=O)c2oc3nc(C)cc(C)c3c2N)cc1
inhibition: -6.8% (inactive)
//
COMPOUND: Cc1noc(C)c1C(=O)N1CCCC(N2CCN(c3cccc(C(F)(F)F)c3)CC2)C1 (stereo unspecified)
inhibition: -31.8% (inactive)
//
COMPOUND: Cc1cc(C)c2c(N)c(C(=O)c3ccccc3)oc2n1
inhibition: 2% (inactive)
//
COMPOUND: Cc1cc(C)c2c(N)c(C(=O)c3ccc(Br)cc3)oc2n1
inhibition: 68.7% (active)

Proceeding to the next compound to report its inhibition.
I'd like to know its inhibition. The compound in question is CN(/N=C/c1cc(Cl)ccc1O)C1=NS(=O)(=O)c2ccccc21
30.8% (active)
